Each record here notes measured kon.
# Tgt: T1, huCD46-His (human, UniProt P15529 35-343)
# T1 construct: extracellular domain; Immobilised by amine coupling on the SPR chip; It may be the same protein as the ELISA antigen; also called Human CD46-His; human CD46; not shown: His tag
# T1 sequence (looked up): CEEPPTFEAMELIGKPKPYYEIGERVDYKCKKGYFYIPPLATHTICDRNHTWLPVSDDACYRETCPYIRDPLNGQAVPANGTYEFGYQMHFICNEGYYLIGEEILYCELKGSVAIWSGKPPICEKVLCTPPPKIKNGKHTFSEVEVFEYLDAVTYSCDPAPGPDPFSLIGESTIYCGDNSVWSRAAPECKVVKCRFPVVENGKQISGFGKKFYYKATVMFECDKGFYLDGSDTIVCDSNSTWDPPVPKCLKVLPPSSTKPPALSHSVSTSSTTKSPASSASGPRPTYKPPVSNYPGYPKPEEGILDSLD
# Assay method text: SPR, huCD46-His immobilised, antibody as analyte, pH 6.5

| Binder | Result |
| --- | --- |
| BAP133-2-03-03-SL (antibody, V domains shown, the killing assays used the ADC form; also called BAP133-02-03-03-SL; CPE hit BAP133-2-03-03-SL) VH: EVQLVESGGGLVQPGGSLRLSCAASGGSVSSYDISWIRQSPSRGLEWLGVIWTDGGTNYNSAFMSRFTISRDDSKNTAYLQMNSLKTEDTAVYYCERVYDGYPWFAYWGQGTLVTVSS VL: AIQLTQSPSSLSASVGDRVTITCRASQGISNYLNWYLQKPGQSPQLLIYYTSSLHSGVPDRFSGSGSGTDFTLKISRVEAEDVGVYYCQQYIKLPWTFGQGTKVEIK | 571000 M⁻¹ s⁻¹ |
| BA-133-04-04 (antibody, V domains shown, the killing assays used the ADC form; also called CPE hit BA133-04-04) VH: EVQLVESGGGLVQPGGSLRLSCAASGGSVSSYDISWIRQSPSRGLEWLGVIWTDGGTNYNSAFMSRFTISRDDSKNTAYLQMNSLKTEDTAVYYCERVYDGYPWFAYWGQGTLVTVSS VL: AIQLTQSPSSLSASVGDRVTITCRASQGISNYLNWYLQKPGQSPQLLIYYTSSLHEGVPDRFSGSGSGTDFTLKISRVEAEDVGVYYCQQYIKLPWTFGQGTKVEIK | 922000 M⁻¹ s⁻¹ |
| BA-133-04-03 (antibody, V domains shown, also called CPE hit BA133-04-03) VH: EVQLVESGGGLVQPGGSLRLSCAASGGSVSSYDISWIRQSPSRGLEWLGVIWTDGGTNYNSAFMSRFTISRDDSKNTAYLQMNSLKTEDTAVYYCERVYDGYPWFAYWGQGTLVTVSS VL: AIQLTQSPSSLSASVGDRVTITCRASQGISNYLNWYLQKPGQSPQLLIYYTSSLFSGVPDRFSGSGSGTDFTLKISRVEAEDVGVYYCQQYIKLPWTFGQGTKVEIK | 941000 M⁻¹ s⁻¹ |

# next binder below
// query kon value for entry BA-133-04-01 (antibody, V domains shown, also called CPE hit BA133-04-01) VH: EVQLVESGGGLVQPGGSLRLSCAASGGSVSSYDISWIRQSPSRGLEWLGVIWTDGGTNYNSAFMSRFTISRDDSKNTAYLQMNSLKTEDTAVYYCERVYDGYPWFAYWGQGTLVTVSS VL: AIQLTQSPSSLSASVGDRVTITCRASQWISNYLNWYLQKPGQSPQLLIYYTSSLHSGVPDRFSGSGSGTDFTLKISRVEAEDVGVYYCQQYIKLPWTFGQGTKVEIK 696000 M⁻¹ s⁻¹
